B1: FUT8 (parent)
chain: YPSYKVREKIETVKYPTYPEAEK

Variants of: B1
Assay: protein stability index of a GFP-peptide fusion (GPS, HEK-293T) (PSI 1-6); higher = more stable;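 note: lentivirally expressed fusions sorted by FACS into six bins by GFP to DsRed ratio, PSI derived from sequencing read proportions per bin multiplied by bin number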
Settings: c terminus: native
Values of protein stability index greater than or equal to 4 map to true (1); values below map to false (0).

Is the recorded value of protein stability index equal to or greater than 4 for this variant? S3N true (1)

Is the recorded value of protein stability index equal to or greater than 4 for this variant? Y4M true (1)

Is the recorded value of protein stability index equal to or greater than 4 for this variant? K23D true (1)

Is the recorded value of protein stability index equal to or greater than 4 for this variant? E11T false (0)

Is the recorded value of protein stability index equal to or greater than 4 for this variant? K14F false (0)

Is the recorded value of protein stability index equal to or greater than 4 for this variant? V13N true (1)

Is the recorded value of protein stability index equal to or greater than 4 for this variant? E22W false (0)

Is the recorded value of protein stability index equal to or greater than 4 for this variant? K5N true (1)

Is the recorded value of protein stability index equal to or greater than 4 for this variant? P2T false (0)

Is the recorded value of protein stability index equal to or greater than 4 for this variant? K9D true (1)

Is the recorded value of protein stability index equal to or greater than 4 for this variant? K9M true (1)

Is the recorded value of protein stability index equal to or greater than 4 for this variant? K9L false (0)

Is the recorded value of protein stability index equal to or greater than 4 for this variant? V6G true (1)

Is the recorded value of protein stability index equal to or greater than 4 for this variant? K9Q true (1)

Is the recorded value of protein stability index equal to or greater than 4 for this variant? Y18R true (1)

Is the recorded value of protein stability index equal to or greater than 4 for this variant? T17S true (1)

Is the recorded value of protein stability index equal to or greater than 4 for this variant? Y15G true (1)

Is the recorded value of protein stability index equal to or greater than 4 for this variant? Y4D true (1)

Is the recorded value of protein stability index equal to or greater than 4 for this variant? V6F false (0)

Is the recorded value of protein stability index equal to or greater than 4 for this variant? V13W false (0)
